Source listed as patent US20140179896A1.

molecular target: T1, human vascular endothelial growth factor receptor-2 Fc chimera (KDR-Fc) (human, UniProt P35968 20-764); assay: radioactive equilibrium binding assay
T1 construct: range 1-764; purchased from R&D Systems; also called hKDR; human VEGF-R2-Fc; not shown: human IgG1 Fc
T1 sequence (P35968 20-764 limits assumed, change not shown, form in doubt): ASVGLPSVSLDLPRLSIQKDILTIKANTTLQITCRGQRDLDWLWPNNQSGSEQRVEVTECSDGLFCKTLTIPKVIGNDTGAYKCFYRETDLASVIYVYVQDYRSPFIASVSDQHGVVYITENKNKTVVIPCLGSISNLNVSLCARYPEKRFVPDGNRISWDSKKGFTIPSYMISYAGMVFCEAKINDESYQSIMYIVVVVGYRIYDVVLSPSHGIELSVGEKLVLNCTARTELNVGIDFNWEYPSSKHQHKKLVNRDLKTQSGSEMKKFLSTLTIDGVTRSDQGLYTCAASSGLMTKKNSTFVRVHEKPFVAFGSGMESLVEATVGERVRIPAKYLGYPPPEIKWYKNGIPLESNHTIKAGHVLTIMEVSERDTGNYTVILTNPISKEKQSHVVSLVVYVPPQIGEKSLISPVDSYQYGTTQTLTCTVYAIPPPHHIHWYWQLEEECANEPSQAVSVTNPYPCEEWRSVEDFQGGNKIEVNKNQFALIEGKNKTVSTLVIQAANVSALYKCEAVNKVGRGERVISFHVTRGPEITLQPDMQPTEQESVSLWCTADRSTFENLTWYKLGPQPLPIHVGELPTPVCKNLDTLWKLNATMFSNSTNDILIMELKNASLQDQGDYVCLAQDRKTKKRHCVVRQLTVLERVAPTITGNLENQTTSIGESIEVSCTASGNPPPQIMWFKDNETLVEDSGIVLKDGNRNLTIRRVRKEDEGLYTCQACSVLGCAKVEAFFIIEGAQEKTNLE
pKd: −log10 of the molar value.
// values below are reported pKd
reported-metric: pKd

>  <binder>
VR28 (designed binder, scaffold said to be unchanged from wild type 10Fn3; Flag-tagged in vitro translated protein in the radioactive assay, His6-tagged E. coli protein in BIAcore; tags left out; also called VR28 (I69T)) VSDVPRDLEVVAATPTSLLISWRHPHFPTRYYRITYGETGGNSPVQEFTVPLQPPTATISGLKPGVDYTITGYAVTVAQNDHELITPISINYRT

>  <reported>
7.96

$$$$
>  <binder>
E25 (designed binder, Del 1-8 10Fn3 clone; Flag-tagged in vitro translated protein in the radioactive assay, His6-tagged E. coli protein in BIAcore; tags left out) EVVAATPTSLLISWRHPHFPTRYYRITYGETGGNSPVQEFTVPLQPPTATISGLKPGVDYTITGYAVTLERNGRELMTPISINYRT

>  <reported>
> 8.80

$$$$
>  <binder>
E18 (designed binder, Del 1-8 10Fn3 clone; Flag-tagged in vitro translated protein in the radioactive assay, His6-tagged E. coli protein in BIAcore and cell assays; tags left out) EVVAATPTSLLISWRHPHFPTRYYRITYGETGGNSPVQEFTVPLQPPTATISGLKPGVDYTITGYAVTVERNGRELNTPISINYRT

>  <reported>
> 8.92

$$$$
>  <binder>
E19 (designed binder, Del 1-8 10Fn3 clone; Flag-tagged in vitro translated protein in the radioactive assay, His6-tagged E. coli protein in BIAcore and cell assays; tags left out) EVVAATPTSLLISWRHPHFPTRYYRITYGETGGNSPVQEFTVPLQPPTATISGLKPGVDYTITGYAVTVERNGRHLMTPISINYRT

>  <reported>
> 8.89

$$$$
>  <binder>
E28 (designed binder, Del 1-8 10Fn3 clone; Flag-tagged in vitro translated protein in the radioactive assay; tag left out) EVVAATPTSLLISWRHPHFPTRYYRITYGETGGNSPVQEFTVPLQPPTATISGLKPGVDYTITGYAVTLERNGRELMVPISINYRT

>  <reported>
> 8.80

$$$$
>  <binder>
E29 (designed binder, Del 1-8 10Fn3 clone; Flag-tagged in vitro translated protein in the radioactive assay, His6-tagged E. coli protein in BIAcore and cell assays; tags left out) EVVAATPTSLLISWRHPHFPTRYYRITYGETGGNSPVQEFTVPLQPPTATISGLKPGVDYTITGYAVTVERNGRVLMTPISINYRT

>  <reported>
> 8.82

$$$$
